Listed compounds paired with reported %Inh
- Test system: PAK4
- assay setup: concentration: 1 μM, replicates: in singlicate; n = 1;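 further: KINOMEscan kinase panel screen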
# output: bare number, implied unit %

Answered examples (3):
COc1cc2ncn(-c3cc(OCc4sccc4Cl)c(C(N)=O)s3)c2cc1OC : 0
Cl.Nc1ncnc2occ(-c3ccc(NC(=O)Nc4cc(C(F)(F)F)ccc4F)cc3)c12 : 9
Cn1ccc2ncnc(Oc3ccc(NC(=O)Nc4ccncc4)c(Cl)c3)c21 : 3

// next entry
Can you share its %Inh? I mean this compound: `Cc1c2ccc(N(C)c3ccnc(Nc4cccc(S(N)(=O)=O)c4)n3)cc2nn1Cc1ccccc1.Cl.Cl`
0

* * *

- Tested on: CSNK1G3
- assay setup: concentration: 1 μM, replicates: in singlicate; n = 1
measurement label: %Inh (%)
# output: bare number, implied unit %

Answered examples (4):
CCCCCc1nc2c(N)ncnc2n1CCCCC [SKF-97255] : 6
Cn1cc(-c2ccc3c(c2)CCN3C(=O)Cc2ccccc2Cl)c2c(N)ncnc21 [GSK2608885] : 20
N#Cc1c(N2CCOCC2)sc(-c2ccn[nH]2)c1-c1ccc(Cl)cc1 : 10
Nc1nc(-c2ccc3c(N)n[nH]c3c2)cc(N2CCCC2)n1 [GSK2227430] : 19

Can you share its %Inh? I mean this compound: Cc1c(Cn2c(C)nn3c(=O)cc(N4CCOC(C)C4)nc23)cccc1C(F)(F)F (centres unmarked) [GSK2344444]
18

* * *

- Test system: FES
- assay setup: concentration: 1 μM, replicates: in singlicate; n = 1
measurement label: %Inh

Answered examples (2):
CCn1cnc2c(N)ncnc21 : 14%
O=C1Cc2cc(Nc3nc(NCc4cccc(S(=O)(=O)C(F)(F)F)c4)ncc3C(F)(F)F)ccc2N1 : 7%

Can you share its %Inh? I mean this compound: `COCCNC(=O)c1ccc(-c2cc(C(=O)NC3CC3)cc(F)c2C)cc1`
32%

Further, for `Cl.Oc1cccc(Nc2ccnc3cc(-c4ccncc4)ccc23)c1` ?
0%

Further, for `CNc1ncnc2[nH]ncc12` ?
0%

Further, for `COc1ccc(S(=O)(=O)NC2CCN(c3cc(C)nc(Nc4cccc(C#N)c4)n3)CC2)cc1.O=C(O)C(F)(F)F` ?
12%

Further, for NCC(NC(=O)c1cc(-c2cn[nH]c2)c(-c2ccnc3[nH]ccc23)s1)c1ccccc1.O=C(O)C(F)(F)F.O=C(O)C(F)(F)F (stereo not drawn) ?
0%

Further, for `O=C1NC(=O)C(N2CCc3ccccc32)=C1c1cccc(Cl)c1` ?
31%

Further, for `NS(=O)(=O)c1cccc(-c2ccc3ncc(N4CCOCC4)nc3c2)c1` ?
6%

* * *

Listed compounds paired with reported %Inh
- System: TEC
- assay setup: concentration: 1 μM, replicates: in singlicate; n = 1

Answered examples (3):
CN1c2ccc(CNc3ccc(F)cc3)cc2-c2c(cnn2C)S1(=O)=O : 0%
Fc1ccc(-c2ncn(CCCN3CCOCC3)c2-c2cccnc2)cc1 : 9%
O=C(Nc1cccc(-c2nn3ncccc3c2-c2ccnc(Nc3cccc(C(F)(F)F)c3)n2)c1)c1c(F)cccc1F : 96.8%

// next entry
Can you share its %Inh? I mean this compound: COc1ccc(Nc2nccc(N3CCC(NC(=O)Nc4cccc(C(C)=O)c4)C3)n2)cc1 (stereo not drawn)
0%

* * *

Listed molecules paired with reported %Inh
- Tested on: MAST1
- assay setup: concentration: 1 μM, replicates: in singlicate; n = 1
# output: bare number, implied unit %

Answered examples (8):
Cc1nnc(-c2ccc3occ(-c4ccc(C(C)O)cc4)c3c2)o1 (stereo not drawn) : 0
O=C(Nc1cccc(-c2nn3ncccc3c2-c2ccnc(Nc3cccc(C(F)(F)F)c3)n2)c1)c1c(F)cccc1F : 0
Nc1nc(-c2ccc3c(N)n[nH]c3c2)cc(N2CCCC2)n1 : 0
O=C(NCCNc1ccnc(Nc2ccc(F)cc2)n1)Nc1ccccc1F : 0
COc1ccc(CNC(=O)NC2CCN(c3ccnc(Nc4ccc(OC)cc4)n3)C2)cc1 (stereo not drawn) : 0
N#Cc1ccc(-c2cc(-c3c[nH]nc3-c3ccccn3)ccn2)cc1 : 26
Fc1ccc(-c2nn3c(OCC(F)(F)F)cccc3c2-c2ccncc2)cc1 : 48
COc1ccc(Nc2nccc(N3CCC(NC(=O)Nc4cc(C)ccc4C)C3)n2)cc1 (stereo not drawn) : 9

Can you share its %Inh? I mean this molecule: `Cn1cc(-c2ccc3c(c2)CCN3C(=O)Cc2ccccc2Cl)c2c(N)ncnc21`
0
